- Tested on: IGROV1 ovarian
- test_summary: NCI tumour cell line growth inhibition, 48 h

compound | unit_abbrev | lt_gt_eq | TGI
Cc1ccc(O)cc1 (tested in a mixture with another compound) | µM | > | 100
C[C@]12CCC(=O)C=C1CC[C@@H]1C2CC[C@@]2(C)C1CC[C@@H]2OC(=O)C12OC1CCC2=O (some centres undefined) | µM | = | 23.6
Cn1c2c(c3ccccc31)CCN(CCCN1CCN(c3ccccc3)CC1)C2=O | µM | = | 38
CCOP(=O)(OCC)C(C)(CC)/N=C(\N)NC#N (centres undefined) | µM | > | 100

* * *

- Test system: NCI-H23 lung
- test_summary: NCI tumour cell line growth inhibition, 48 h
In this section we review reported TGI values for a set of molecules.

molecule | TGI
COc1ccc(Nc2ncccc2C(=O)NCc2cn(Cc3cccc(Oc4ccccc4)c3)nn2)c(OC)c1 | > 100 µM
c1cnc2nc3n(c2c1)CSC3 | > 100 µM
COC(=O)C1CCCN1C(=O)OC(C)(C)C (centres undefined) | > 100 µM
COC(=O)CC1NC(=O)C1C(C)(OC)OC (centres undefined) | > 100 µM
COc1ccc(C2NC3=C(CCCC3)N2)cc1 | > 100 µM
Cc1ccc(Cc2n[nH]c(=O)n2N2C(=O)c3ccccc3C2=O)cc1 | > 100 µM
CN(C)C=Nc1c2c(nc3ccccc13)CCCC2 | > 100 µM
COC(=O)c1cc2c(nc1C)-c1ccccc1OS2(=O)=O | > 100 µM
Cc1ccc(S(=O)(=O)OC2CSSCC2OS(=O)(=O)c2ccc(C)cc2)cc1 (centres undefined) | 33.3 µM
O=C1c2ccccc2-c2ccccc2C1(Cl)Cl | 4.25 µM
CNC(=O)c1cc(Oc2cccc3nc(NC(=O)Nc4ccc(F)cc4F)ccc23)ccn1 | > 50 µM
N#CC(C#N)C1CN2CCC1CC2 (centres undefined) | > 100 µM
COc1ccc2c(c1)C(=O)c1c-2c(OCCN2CCCCC2)nc2ccc(OC)cc12 | 7.68 µM
Cn1c2c(c3ccccc31)CCN(CCCN1CCN(c3ccccc3)CC1)C2=O | 46.8 µM

* * *

In this section we review reported TGI values for a set of molecules.
- Test system: SK-MEL-2 melanoma
- test_summary: NCI tumour cell line growth inhibition, 48 h

molecule | target_system | TGI
COC(=O)C1CCCN1C(=O)OC(C)(C)C (configuration not stated) | SK-MEL-2 melanoma | > 100 µM
C=C(C)C1CCC2(C(=O)O)CCC3(C)C(CCC4C5(C)CCC(O)C(C)(C)C5CCC43C)C12 (configuration not stated) | SK-MEL-2 melanoma | 32.2 µM
CN(C)C=Nc1c2c(nc3ccccc13)CCCC2 | SK-MEL-2 melanoma | > 100 µM
NCCCCCCCCCn1c2c(c3ccccc3c1=O)C(=O)c1ccccc1-2 | SK-MEL-2 melanoma | > 50 µM
O=C1CCCCCCCCCCOC(=O)CCCCCCCCCCO1 | SK-MEL-2 melanoma | > 100 µM
COc1cc(C2c3cc4c(cc3OC(NNc3ccccc3)C2C)OCO4)cc(OC)c1O (configuration not stated) | SK-MEL-2 melanoma | 6.35 µM
Cc1cc(C)c(C(=O)/C(=C/c2ccccc2)c2ccccc2)c(C)c1 | SK-MEL-2 melanoma | 43.4 µM
CCN(CCN(CC)C(=O)NC)C(=O)NC | SK-MEL-2 melanoma | > 100 µM
Cc1cc2nc(CC(C(F)(F)F)C(F)(F)F)oc2cc1C | SK-MEL-2 melanoma | 9.85 µM
CN(C)CCCN=c1c2ccccc2n(C)c2[nH]c(=O)n(C)c(=O)c12 | SK-MEL-2 melanoma | 9.96 µM
COc1cc2oc(-c3ccc(O)cc3)cc(=O)c2c(OC)c1O | SK-MEL-2 melanoma | > 100 µM
O=C1C=CC(=O)[C@H]2C3C=CC(C4C3C3(Cl)C(Cl)=C(Cl)[C@]4(Cl)C3(Cl)Cl)[C@@H]12 (some centres not stated) | SK-MEL-2 melanoma | 20.3 µM
COCC1N=C(c2cc(OC)c(OC)c(OC)c2-c2cc3c(cc2[C@@H](C)O)OCO3)O[C@H]1c1ccccc1 (some centres not stated) | SK-MEL-2 melanoma | > 87.7 µM
COc1cc(CC2C(=O)OCC2[C@@H](OC(C)=O)c2ccc3c(c2)OCO3)c(Br)c(OC)c1OC (some centres not stated) | SK-MEL-2 melanoma | > 100 µM
O=C(Nc1ccc(Cl)cc1)c1cc2ccccc2cc1OP(=O)(O)O | SK-MEL-2 melanoma | 24.4 µM
O=[N+]([O-])c1cccc([I+]c2ccccc2)c1 | SK-MEL-2 melanoma | 35.2 µM
CN1CCN(Cn2nc(-c3cc(F)c(Cl)cc3Cl)oc2=S)CC1 | SK-MEL-2 melanoma | > 100 µM
CS(=O)(=O)c1ccc(-c2cnc(NCc3ccco3)n3cnnc23)cc1 | SK-MEL-2 melanoma | > 100 µM
Cc1cc(N(CCC#N)CCC#N)ccc1CC1N=C(c2ccccc2)OC1=O (configuration not stated) | SK-MEL-2 melanoma | > 100 µM
COc1cc(/C=C/C2=NN(c3cccc(S(=O)(=O)O)c3)C3(C2)SCC(=O)N3c2nc3ccccc3s2)cc(OC)c1OC (configuration not stated) | SK-MEL-2 melanoma | > 100 µM
CC(=O)Nc1ccc(Cc2ccc3[nH]c(=O)cc(C)c3c2)cc1 | SK-MEL-2 melanoma | 77.7 µM
COc1c(C)c(C/C=C(\C)CCCCO)c(OC)c2ccccc12 | SK-MEL-2 melanoma | > 100 µM
O=c1[nH]c(-c2ccc([N+](=O)[O-])cc2)nc2ccc(Cl)cc12 | SK-MEL-2 melanoma | > 100 µM
O=[N+]([O-])c1ccc2c(N=Nc3ccc4ccccc4c3O)c(O)cc(S(=O)(=O)O)c2c1 | SK-MEL-2 melanoma | > 100 µM
N/C(=N/N=C/c1cccc(F)c1)NO | SK-MEL-2 melanoma | > 100 µM
Clc1ccc(Nc2ncnc3c2sc2ncccc23)c(Cl)c1 | SK-MEL-2 melanoma | > 100 µM
N#CCN1CCCN(CC#N)CCN(CC#N)CCCN(CC#N)CC1 | SK-MEL-2 melanoma | > 100 µM
